Reference source for all entries: patent US20240294623A1

Target: T1, hGARP-proTGFβ1 (human, UniProt Q14392 18-627; P01137 30-390, limits assumed)
T1 construct: LLC as m1; Same id used for the cell-surface complex in reporter assays; also called human GARP-proTGFβ1 complex; GARP-ProTGFb1
T1 sequence (Q14392 18-627 limits assumed, chain 1 of 2): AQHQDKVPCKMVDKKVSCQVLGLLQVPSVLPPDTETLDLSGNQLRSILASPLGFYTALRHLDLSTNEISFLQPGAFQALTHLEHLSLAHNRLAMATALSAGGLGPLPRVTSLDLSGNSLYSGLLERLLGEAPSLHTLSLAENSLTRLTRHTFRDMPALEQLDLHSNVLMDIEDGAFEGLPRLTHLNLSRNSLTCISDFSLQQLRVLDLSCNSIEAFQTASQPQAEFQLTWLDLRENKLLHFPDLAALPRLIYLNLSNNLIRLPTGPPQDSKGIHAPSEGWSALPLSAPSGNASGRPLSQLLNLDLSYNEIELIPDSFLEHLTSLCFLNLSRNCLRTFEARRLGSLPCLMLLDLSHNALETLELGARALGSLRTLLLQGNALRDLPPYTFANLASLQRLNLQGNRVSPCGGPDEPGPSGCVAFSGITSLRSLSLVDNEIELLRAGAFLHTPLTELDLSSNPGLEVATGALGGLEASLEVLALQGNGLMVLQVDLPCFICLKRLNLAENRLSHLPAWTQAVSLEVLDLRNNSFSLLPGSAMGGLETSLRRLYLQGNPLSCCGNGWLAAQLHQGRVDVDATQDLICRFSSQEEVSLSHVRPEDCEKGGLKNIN
T1 sequence (P01137 30-390 limits assumed, chain 2 of 2): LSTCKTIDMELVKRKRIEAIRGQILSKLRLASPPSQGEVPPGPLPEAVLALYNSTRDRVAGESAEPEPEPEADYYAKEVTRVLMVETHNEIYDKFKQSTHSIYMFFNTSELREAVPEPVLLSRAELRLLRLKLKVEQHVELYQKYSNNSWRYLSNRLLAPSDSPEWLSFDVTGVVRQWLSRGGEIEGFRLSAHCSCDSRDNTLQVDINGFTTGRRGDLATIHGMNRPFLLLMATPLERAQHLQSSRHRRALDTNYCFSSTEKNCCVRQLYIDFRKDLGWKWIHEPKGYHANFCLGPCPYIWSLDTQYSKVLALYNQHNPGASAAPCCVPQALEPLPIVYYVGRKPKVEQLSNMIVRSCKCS
Experiment: MSD-SET, hIgG4
Procedure: For solution equilibrium titration-based binding assays, protein complexes that comprise one of the presenting molecules such as those shown above may be employed as antigen (presenting molecule-TGFβ1 complex, or an LLC). […] Antigen-antibody reaction mixtures are incubated to allow an equilibrium to be reached; the amount of the antigen-antibody complex present in the assay reactions can be measured by suitable means well known in the art. […]
quantity-kind: pKd
Quick note: pKd values are minus log10 of concentrations in mol/L.

Solved cases below.
Ab32 (antibody, V domains shown) VH: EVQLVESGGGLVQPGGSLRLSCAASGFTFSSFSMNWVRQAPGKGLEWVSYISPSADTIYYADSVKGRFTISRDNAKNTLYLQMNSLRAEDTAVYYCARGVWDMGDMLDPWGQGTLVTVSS VL: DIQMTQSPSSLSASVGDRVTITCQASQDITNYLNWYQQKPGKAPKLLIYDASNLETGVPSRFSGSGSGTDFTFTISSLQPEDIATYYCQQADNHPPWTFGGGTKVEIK | 10.82
Ab33 (antibody, V domains shown) VH: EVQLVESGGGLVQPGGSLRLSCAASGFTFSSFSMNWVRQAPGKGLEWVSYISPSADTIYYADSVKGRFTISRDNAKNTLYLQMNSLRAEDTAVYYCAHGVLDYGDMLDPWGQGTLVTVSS VL: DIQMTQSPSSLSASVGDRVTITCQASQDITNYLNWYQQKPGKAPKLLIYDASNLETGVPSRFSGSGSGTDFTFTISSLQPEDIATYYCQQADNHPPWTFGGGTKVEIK | 11.11

Quick one: pKd of Ab6 (antibody, V domains shown, Fully human IgG4/kappa) VH: EVQLVESGGGLVQPGGSLRLSCTASGFTFSSFSMDWVRQAPGKGLEWVSYISPSADTIYYADSVKGRFTISRDNAKNTLYLQMNSLRAEDTAVYYCARGVLDYGDMLMPWGQGTLVTVSS VL: DIQMTQSPSSLSASVGDRVTITCQASQDITNYLNWYQQKPGKAPKLLIYDASNLETGVPSRFSGSGSGTDFTFTISSLQPEDIATYYCQQADNHPPWTFGGGTKVEIKR ?
10.57
